Test method notes: CD (circular dichroism) spectroscopy of α-helix structure
Type: physicochemical
Measurement setup: Table 11; peptide complexes of Examples 37-97
Non-standard residues stand in square brackets, D forms with d. No end group written: not given here. Aib = CC(C)(N)C(=O)O
Mark rule met for θ222 nm/θ208 nm ratio under 1, rule not met if at or over.

Substance: WAUAUAUAUAUAUAU(PEG2)5 [Example 49]
Class name: rule not met
//
Substance: RAUAUAUAUAUAUAUAUAUAUARGDRGDRGDRGD [Example 65]
Class name: rule met
//
Substance: RAUAUAUAUAUAUAUAUAUAUAGRGDRGDRGDG [Example 66]
Class name: rule met
//
Substance: RRAUAUAUAUAUAUAUAUAUAUAGRGDRGDRGDG (RRA[Aib]A[Aib]A[Aib]A[Aib]A[Aib]A[Aib]A[Aib]A[Aib]A[Aib]A[Aib]AGRGDRGDRGDG) [Example 68]
Class name: rule met
//
Substance: RGDRGDRGDAUAUAUAUAUAUAUAUAUAUAR [Example 71]
Class name: rule not met
//
Substance: WAUAUAUAUAUAUAUAUAU(PEG2)5 [Example 51]
Class name: rule not met
//
Substance: AUAUAUAUAUAUAUA(PEG8)2 [Example 53]
Class name: rule not met
//
Substance: WAUAUAUAUAU(PEG2)5 [Example 47]
Class name: rule met
//
Substance: Example 41: peptide complex (Wαm-RGD, Wαm-GS), SEQ ID NO 41 (A[Aib]A[Aib]A[Aib]A[Aib]A[Aib]A[Aib]A[Aib]A[Aib]A[Aib]A[Aib]AGRGDRGDRGDG)
Class name: rule met
//
Substance: WAUAUAUAUAUAU(PEG2)5 [Example 48]
Class name: rule met
//
Substance: (PEG8)2 AUAUAUAUA [Example 55]
Class name: rule met
//
Substance: EAUAUAUAUAUAUAUAUAUAUAGSGSGSGS (EA[Aib]A[Aib]A[Aib]A[Aib]A[Aib]A[Aib]A[Aib]A[Aib]A[Aib]A[Aib]AGSGSGSGS) [Example 95]
Class name: rule not met
//
Substance: RRRAUAUAUAUAUAUAUAUAUAUAGRGDRGDRGDG (RRRA[Aib]A[Aib]A[Aib]A[Aib]A[Aib]A[Aib]A[Aib]A[Aib]A[Aib]A[Aib]AGRGDRGDRGDG) [Example 69]
Class name: rule met
//
Substance: (PEG8)2 AUAUAUAUAUAUAUAUAUAUA [Example 57]
Class name: rule not met
//
Substance: RAUAUAUAUAUAUAUA(PEG8)2 [Example 59]
Class name: rule met
//
Substance: EEAUAUAUAUAUAUAUAUAUAUA(PEG8)2 [Example 91]
Class name: rule not met
//
Substance: EAUAUAUAUAUAUAUAUAUAUARGDRGDRGD (EA[Aib]A[Aib]A[Aib]A[Aib]A[Aib]A[Aib]A[Aib]A[Aib]A[Aib]A[Aib]ARGDRGDRGD) [Example 94]
Class name: rule not met
